The measured values listed here are drawn from PubChem BioAssay (NCI).

- Tested on: SNB-19 CNS
- assay.text: NCI-60 one-dose screen, 48 h (100 = growth as untreated, 0 = no growth, -100 = all killed)
- cond: 10 µM unless noted
Compounds without any hit were thinned out: in the full panel of roughly 83,000, 20% have a hit.
quantity: growth (%)
Kindly answer with a numeric value in %, unit omitted.

Field: example entries. Status: answers known.
| compound | assayed.target | quantity | output.unit | recorded.result |
| --- | --- | --- | --- | --- |
| O=C1C(N2CCN(c3ccccc3)CC2)=C(Cl)C(=O)c2ncccc21 | SNB-19 CNS | growth | % | 81.5 |
| Fc1cccc(Cl)c1/C=N/Nc1nc(N/N=C/c2c(F)cccc2Cl)nc(N2CCCCC2)n1 | SNB-19 CNS | growth | % | 25.8 |
| N#Cc1c(-c2cccs2)cc(-c2cnccn2)nc1SCC(=O)N/N=C/c1ccncc1 | SNB-19 CNS | growth | % | 101 |
| CN1CC[C@@H]2[C@@]3(C)CC[C@H](O)C(C)(C)[C@@H]3CC[C@@]2(C)[C@]2(C)CC[C@@]3(CO)CCC(C)(C)C[C@@H]3C12 (some centres undefined) | SNB-19 CNS | growth | % | 94.5 |
| FC(F)(F)c1cc(Br)cc(-c2cc(-c3ccc4c(c3)OCCO4)[nH]n2)c1 | SNB-19 CNS | growth | % | 34.3 |
| CCc1cc(OC(=O)N2CCN(CCC(C)(COC(C)(C)C)COC(C)(C)C)CC2)ccc1Nc1cc(-c2ccc(-n3cccn3)cc2)[nH]n1 | SNB-19 CNS | growth | % | 86.2 |
| Clc1ccc(CSc2nnc(-c3ccc(Cl)cc3)n2-c2ccccc2)cc1 | SNB-19 CNS | growth | % | 62 |
| NC1[C@H]2CN(c3cnc(C(=O)Nc4cc(F)cc5cccnc45)cn3)C[C@@H]12 (some centres undefined) | SNB-19 CNS | growth | % | 75.2 |
| CC1=C(C)C(=O)C(Nc2cccc(C(=O)OC(C)(C)C)c2)=CC1=O | SNB-19 CNS | growth | % | 78.2 |
| COc1ccc(C(=O)c2c(N)c(C#N)cn2-c2ccc(Cl)cc2Cl)cc1 | SNB-19 CNS | growth | % | 93.1 |

In: Dear colleague, please send me the reported growth for Cc1ccc(NC2=C(Cl)C(=O)c3nc(C)ccc3C2=O)c(C)c1 when you can.
Out: 30.5

In: Dear colleague, please send me the reported growth for Cc1ccc(OCc2occc2C(=O)N2CCOCC2)cc1 when you can.
Out: 99.8

In: Dear colleague, please send me the reported growth for CCCCc1nc2c(N)nc3ccccc3c2n1Cc1ccc(OC)cc1 when you can.
Out: 76

In: Dear colleague, please send me the reported growth for CC(=O)N1N=C(c2cc3ccccc3oc2=O)CC1c1cn(-c2ccccc2)nc1-c1ccc(C)cc1 (centres undefined) when you can.
Out: 96

In: Dear colleague, please send me the reported growth for CCCCCN1C(=O)/C(=c2\sc3n(c2=O)C2C(NN=3)N(CC)C(=O)N2CC)c2cccc(C)c21 (centres undefined) when you can.
Out: 53.1

In: Dear colleague, please send me the reported growth for Cc1ccc2c(n1)C(=O)C(Cl)=C(Nc1ccc(C#N)cc1)C2=O when you can.
Out: 96.4

In: Dear colleague, please send me the reported growth for N#Cc1c(-c2ccc(F)cc2)cc(-c2c[nH]c3ccccc23)nc1-c1c[nH]c2ccccc12 when you can.
Out: 102

In: Dear colleague, please send me the reported growth for CCc1cc2c(cc1Cl)nc1c(=O)[nH]c(=O)nc-1n2CCOCC(C)C when you can.
Out: 85

In: Dear colleague, please send me the reported growth for O=C(COc1ccc(/C=C2\C(=O)Nc3ccc(F)cc32)cc1)Nc1ccccc1 when you can.
Out: 93.3
